meta.source: paper PMC4348493

test system: CLL B lymphocytes (CD19+/CD5+); settings: added 30 min before PKHB1 200 μM, 2 h; BAPTA 5 mM, BAPTA-AM 20 μM, 2-APB 60 μM, dantrolene 40 μM, U73122 200 nM, hSIRPα-Fc 15 μg/ml
REPORTED_METRIC: Effect of pre-incubation on PKHB1-mediated cell death in CLL cells

| MOLECULE | TARGET_SYSTEM | RESULT |
| --- | --- | --- |
| O=C1CN(/N=C/c2ccc(-c3ccc([N+](=O)[O-])cc3)o2)C(O)=N1 [dantrolene] | CLL B lymphocytes (CD19+/CD5+) | significantly decreased |
| CC(=O)OCOC(=O)CN(CC(=O)OCOC(C)=O)c1ccccc1OCCOc1ccccc1N(CC(=O)OCOC(C)=O)CC(=O)OCOC(C)=O [BAPTA-AM] | CLL B lymphocytes (CD19+/CD5+) | significantly decreased |
| NCCOB(c1ccccc1)c1ccccc1 [2-APB, 2-aminoethoxydiphenyl borate] | CLL B lymphocytes (CD19+/CD5+) | significantly decreased |

* * *

assay: Peptide degradation assay in human serum (HPLC); format: in vitro ADME; settings: human serum diluted 1:4 in RPMI 1640, 1-h incubation, peptide 10 mg/ml in 1:4 human serum/RPMI 1640, 37°C, serum proteins precipitated with ethanol/NaOH, absorbance 220 nm, read-out: Peptide degraded in human serum
REPORTED_METRIC: metabolised at 1 h, 10 mg/ml

Consider the compound CSCC[C@H](NC(=O)[C@@H](NC(=O)[C@@H](NC(=O)[C@H](Cc1ccc(O)cc1)NC(=O)[C@H](Cc1ccccc1)NC(=O)[C@H](CCCNC(=N)N)NC(=O)[C@@H](N)CCCCN)C(C)C)C(C)C)C(=O)N[C@@H](Cc1c[nH]c2ccccc12)C(=O)N[C@@H](CCCCN)C(=O)N[C@@H](CCCCN)C(=O)O and give its measured metabolised at 1 h, 10 mg/ml.
> 90%
